System: Radical scavenging activity
Measurement description: Antioxidant activity assessed as DPPH radical scavenging activity after 48 hrs
Format: functional
Measured parameter: pIC50
Expect pIC50 as a plain number equal to -log10 of the molar concentration.

COc1cc2c3c(c1OC)-c1ccccc1[C@H](OC(C)=O)[C@H]3N(C(C)=O)CC2 | 3.44

The compound identified as `CC(=O)O[C@H]1c2ccccc2-c2c3c(cc4c2[C@@H]1N(C(C)=O)CC4)OCO3` registered its pIC50 at 3.29
